System: Trypanosoma cruzi
PROTOCOL SUMMARY: Antitrypanosomal activity against Trypanosoma cruzi 320I01 amastigotes infected in african green monkey Vero cells after 5 days by Giemsa staining
Type: functional, organism-based
CONDITION PARAMETERS: 320I01, Vero, 120 h
IC90 reference

COMPOUND | IC90
O[C@@H]1Cc2ccccc2N[C@H](c2ccccc2F)C1 (relative stereo) | > 100 µM
O[C@@H]1Cc2ccccc2N[C@H](c2ccccc2Cl)C1 (relative stereo) | > 100 µM
Fc1ccc([C@@H]2C[C@@H]3Cc4ccccc4N2O3)cc1 (relative stereo) | > 100 µM
O[C@@H]1Cc2ccccc2N[C@H](c2ccccc2)C1 (relative stereo) | > 100 µM
Clc1ccc2c(c1)C[C@H]1C[C@@H](c3c(Cl)cccc3Cl)N2O1 (relative stereo) | > 98.2 µM

Please give the documented IC90 of Fc1cccc(Cl)c1[C@@H]1C[C@@H]2Cc3cc(Cl)ccc3N1O2 (relative stereo)
> 100 µM

Retrieve IC90 measured for O[C@@H]1Cc2cc(Cl)ccc2N[C@H](c2ccccc2)C1 (relative stereo) and print it.
> 100 µM

Look up IC90 of Clc1ccc([C@@H]2C[C@@H]3Cc4cc(Cl)ccc4N2O3)cc1 (relative stereo) and report it.
> 100 µM

Fill in IC90 for record Cc1ccc2c(c1)C[C@H]1C[C@@H](c3ccccc3Cl)N2O1 (relative stereo)
> 100 µM

Output IC90 of Clc1ccc2c(c1)C[C@H]1C[C@@H](c3ccccc3Cl)N2O1 (relative stereo)
> 100 µM

###

Test system: Leishmania chagasi
PROTOCOL SUMMARY: Antileishmanial activity against Leishmania chagasi MHOM/BR/74/PP75 promastigotes after 72 hrs by haemocytometry
Assay type: functional, organism-based
CONDITION PARAMETERS: MHOM/BR/74/PP75, 72 h
ASSAY ENDPOINT: IC90 (µM)

COMPOUND | UNIT DESCRIPTOR | REPORTED RESULT
Brc1ccc2c(c1)C[C@H]1C[C@@H](c3ccccc3)N2O1 (relative stereo) | µM | 54.9

A = O[C@@H]1Cc2cc(F)ccc2N[C@H](c2ccc(Cl)cc2)C1 (relative stereo)
B = Cc1ccc2c(c1)C[C@H]1C[C@@H](c3ccccc3Cl)N2O1 (relative stereo)
C = O[C@@H]1Cc2cc(Cl)ccc2N[C@H](c2ccc(Br)cc2)C1 (relative stereo)
# rank_down: sort by IC90, max first Write out the labels following the order that was asked for.
A, B, C

###

Entries and their IC90 values follow.
Tested on: Trypanosoma cruzi
PROTOCOL SUMMARY: Antitrypanosomal activity against Trypanosoma cruzi 320I01 amastigotes infected in african green monkey Vero cells after 5 days by Giemsa staining
Assay type: functional, organism-based
CONDITION PARAMETERS: 320I01, Vero, 120 h

Using the record for Fc1cccc(Cl)c1[C@@H]1C[C@@H]2Cc3ccccc3N1O2 (relative stereo) , state its measured IC90.
> 100 µM

###

Test system: Leishmania chagasi
PROTOCOL SUMMARY: Antileishmanial activity against Leishmania chagasi MHOM/BR/74/PP75 promastigotes after 72 hrs by haemocytometry
Type: functional, organism-based
CONDITION PARAMETERS: MHOM/BR/74/PP75, 72 h
IC90 listing for selected compounds.

Worked examples, 2 compounds total:
COMPOUND | TARGET UNDER TEST | REPORTED RESULT
O[C@@H]1Cc2ccccc2N[C@H](c2c(Cl)cccc2Cl)C1 (relative stereo) | Leishmania chagasi | > 100 µM
C[C@@H]1[C@H](O)[C@@H](C)/C=C/C=C/C=C/C=C/C=C/C=C/C=C/[C@H](O[C@@H]2O[C@H](C)[C@@H](O)[C@H](N)[C@@H]2O)C[C@@H]2O[C@](O)(C[C@@H](O)C[C@@H](O)[C@H](O)CC[C@@H](O)C[C@@H](O)CC(=O)O[C@H]1C)C[C@H](O)[C@H]2C(=O)O | Leishmania chagasi | 0.02 µM

# ---- query compound ----
Identify the reported IC90 for the following entry. O[C@@H]1Cc2ccccc2N[C@H](c2ccccc2)C1 (relative stereo)
> 100 µM

Cited source: ChEMBL document CHEMBL1177650
